Measured quantity: melting point

Look up melting point for the entries below, preserving their order.
1. CC1CCC2(c3c[nH]cn3)Cc3ccccc3C12 (stereo not given)
2. CC1CNCC1NC(=O)OC(C)(C)C (stereo not given)
3. CC(C)(C)c1cc(OC(=O)N2CC(O)C2)cc(C(C)(C)C)c1
4. O=c1oc2ccc(-c3ccc(F)cc3F)cc2c(=O)n1-c1ccccc1C(F)(F)F
5. CCC1(CO)C=NC(c2nn(Cc3ccccc3F)c3ccccc23)O1 (stereo not given)

Result:
168 to 172 °C
86.8 to 87 °C
166 to 170 °C
200 to 201 °C
137 to 139 °C

----------
Record form. Attribute: melting point. Fill in for each entry.
Numbers only, in °C.

Here's what some known entries look like.
1) CC(C)c1ccc(C(C)(C)C)c(O)c1C(=O)Nc1ccc(S(=O)(=O)C(F)(F)F)cc1Cl : 116
2) CN(C(=O)CN(C(=O)CNC(=O)Nc1cccc(/C=N/O)c1)c1ccccc1)c1ccccc1 : 219

Kindly give each listed record's melting point.
1. C[C@@H](COC(F)(F)C(F)F)[C@](O)(Cn1cncn1)c1ccc(F)cc1F
2. Cc1ccc(C(=C/C=C/C(=O)Oc2ccc([N+](=O)[O-])cc2)c2ccc(C)cc2)cc1

Result:
[148, 154]

----------
Kindly state melting point for each of the entries shown.

Example entries begin here.
1) CCCOc1ccc(S(=O)(=O)NC[C@@H](C(=O)NO)N2CCN(S(C)(=O)=O)CC2)cc1 : 137 °C
2) O=S(=O)(Nc1ccccc1COc1cccc2cccnc12)c1cccc(C(F)(F)F)c1 : 120 to 121 °C
3) C(=C\c1nc2ccccc2n1-c1nccs1)/c1ccccc1 : 99 to 99.5 °C
4) c1nc(Nc2ccc3[nH]ccc3c2)c2sc(-c3ccc(CNC4CC4)cc3)cc2n1 : 176 to 180 °C
5) O=C(O)CCCN(Cc1cccc(Cl)c1)Cc1cccc(Cl)c1 : 170 to 173 °C

Look at each compound and report its melting point.
1. COC(C)CNS(=O)(=O)c1cc(C2(O)CCC(=O)N2C)ccc1Cl (stereo not given)
2. COc1cc(C(N)=O)c([N+](=O)[O-])cc1OC
3. O=C1c2ccccc2C(=O)N1c1ccc2ccc(F)nc2n1
4. Cc1noc(-c2ncn3c2CN(C)C(=O)c2cc(F)ccc2-3)n1
5. CC(C)(O)c1cc(C#N)ccc1O

Result:
1. 124 to 126 °C
2. 197 °C
3. 245 °C
4. 244 to 245 °C
5. 129 to 130 °C

Parameters: items (list). Returns: melting point for each item.
1. O=C(C[C@H](NC(=O)c1ccccc1)C(=O)O)c1ccc2oc3ccccc3c2c1
2. CNC(=O)Nc1c2c(nc3sccc13)CCCC2
3. Cc1cc2cc(CN3CCCC3)cnc2cc1NC(=O)c1ccc(-c2ccc3ccccc3c2)cc1

Result:
1. 124 to 130 °C
2. 253 to 255 °C
3. 194 °C

Could you tell me melting point for each of these compounds? They are listed below.
1. O=S1(=O)NCN(CCF)c2cc(Cl)cc(Cl)c21
2. CCCOc1cc2ccccc2c2c(=O)c(-c3ccc(OC)cc3)c[nH]c12
3. Cc1c(C(C)CC(=O)O)n(Cc2ccc(Cl)cc2)c2ccc(F)cc12 (stereo not given)
4. COc1cc2c(cc1Nc1ncc(Cl)c(Nc3ccc(N4CCOCC4)cc3OC)n1)CCN(CC(=O)N1CCOCC1)CC2
5. CC(=O)SCc1ccc(I)cc1
6. CCCCCNc1nc2ccccc2n1C1CCN(C2(c3ccccc3)CCCCCC2)CC1

Result:
1. 180 to 184 °C
2. 172 to 174 °C
3. 143 °C
4. 189 to 191 °C
5. 40 to 41 °C
6. 156 to 159 °C

----------
Field: melting point. Provide a value for each of the compounds that follow.

1. C#Cc1ccc([Si](OC)(OC)OC)cc1 : 38 to 39 °C
2. C(=C\C1CCCCC1)/c1nc(COc2ccc(CCCn3ccnc3)cc2)co1 : 62 to 63 °C
3. CCOC(=O)c1cn(C2CC2)c2c(F)c(NCCCO)c(F)cc2c1=O : 160 to 162 °C
4. O=C(O)CN1C(=O)C(=O)N(Cc2cccc([N+](=O)[O-])c2)C1=S : 188 °C
5. O=C1C=C(NC(=O)C(=O)c2cn(Cc3cccc(Cl)c3)c3ccccc23)CO1 : 268 to 270 °C
6. Cc1ccc(C)c(C(=O)NC(C)(C)C)c1 : 80 to 82 °C
7. N#Cc1ccc(Nc2cccc(I)c2)c([N+](=O)[O-])c1 : 211 to 212 °C
8. CC(C)N(C(C)C)S(=O)(=O)N[C@@H](Cc1ccc(NC(=O)c2c(Cl)cncc2Cl)cc1)C(=O)O : 151 °C
9. N#Cc1ccc(NC(=O)c2cccc(OCc3ccc(C(F)(F)F)cc3)c2)cc1 : 167 to 168 °C

Now consider a different compound.
Request: What value of melting point has been reported for the following compound? "CCNC(=C[N+](=O)[O-])NCCSCc1[nH]cnc1C"
Result: 171 to 172 °C

----------
Measured quantity: melting point

Consider the following illustrative entries.
1) CCCCn1c(=O)n(CC)c(=O)c2c1ncn2S(=O)(=O)c1ccc(C)cc1 : 135 to 139 °C
2) Fc1cc(-c2ccc3nnn(Cc4ccc5ncccc5c4)c3n2)ccc1OC1CCOCC1 : 165 to 167 °C
3) Oc1ccc2nc(-c3cccc(Cl)c3)oc2c1 : 246 to 248 °C
4) CCCCNC(=O)[C@@H](C[C@H](O)[C@@H](N)C[C@H](Cc1ccc(OC)c(CCOCOC)c1)C(C)C)C(C)C : 56 to 58 °C

// next item, melting point requested
Request: Would you kindly share the measured melting point for "N#Cc1c(N2CCc3ccccc3CC2)nc2n(c1=O)CCCC2" ?
Result: 136 to 140 °C

----------
Measured quantity: melting point

1. Cc1oc(COc2ccc(/C=C/C=O)cc2)nc1-c1ccccc1 : 144 to 146 °C
2. OC(CCCN1CC=C(c2ccccc2)CC1)c1ccc(Cc2ccc(Cl)cc2)cc1 (configuration not stated) : 108 to 111 °C
3. COc1cc(CO)ccc1OCc1nc(-c2ccccc2)cn1C : 126 to 127 °C
4. CS(=O)(=O)c1ccc(-c2cc(C(F)(F)F)nn2C2CCCCC2)cc1F : 228 to 229 °C
5. COc1ccc(S(=O)(=O)C(C)(Cc2ccccc2)C(=O)NO)cc1 (configuration not stated) : 58 °C

Go through the items and report each one's melting point.
1. Cn1ncnc1COc1nn2c(-c3ccccc3)nnc2cc1C12CCC(CC1)C2
2. N#Cc1cc(C#N)cc(Oc2cccc(Oc3cc(C#N)cc(C#N)c3)c2)c1

Result:
1. 244 to 246 °C
2. 212 to 213 °C

----------
For each entry below, report its melting point value.

// known answers, use as guide
1. Fc1ccc2c(CN3CCN(c4ccc(Cl)cc4)CC3)n[nH]c2c1F : 167 to 168 °C
2. O=C(NCCO)c1cccc(-c2nc(=O)c3ccccc3s2)n1 : 214 to 215 °C

Go through the list and state melting point for each entry.
1. Cc1ccc(C)c(C2CC(=O)c3c(C)ccnc3C2)c1 (centres undefined)
2. CC(=O)OC(COc1ccc(/C=C/C(=O)O)c(Oc2ncc(C(F)(F)F)cc2Cl)c1)COC(C)C (centres undefined)

Result:
95 to 96 °C
134 to 135 °C

Could you report melting point for every entry in the following list?
1. CCOC(=O)c1cn(C2CC2)c2nc(N3CCC(NC(C)=O)C3)c(F)cc2c1=O (centres undefined)
2. OC1(c2ccccc2Cc2ccccc2)CCN(CC2CC2)C1 (centres undefined)
3. Cn1ccc(=O)c(O)c1Cc1cccnc1
4. Nc1cc(=O)n(Cc2ccc(C(F)(F)F)c(Cl)c2)[nH]1
5. CC(=O)Nc1ccc(F)c(-c2ccncc2)c1F
6. O=c1[nH]ccn1CC#CCN1CCCC1
7. CN1CC(=O)N2[C@H](c3ccc(O)c(O)c3)c3[nH]c4ccccc4c3C[C@@H]2C1=O
8. CC(C)(C)c1ncc(OCc2ccccc2)c(Cl)n1

Result:
1: 246 to 248 °C; 2: 118 to 120 °C; 3: 209 to 212 °C; 4: 83 °C; 5: 148 to 150 °C; 6: 99 to 102 °C; 7: 224 to 226 °C; 8: 51 °C

Dear colleague, could you please provide melting point for the molecules listed below?
1. CC1(C)CC(=O)C(c2c(Cl)cc(N)cc2Cl)C(=O)C1
2. CCc1cc2[nH]c(=O)c(=O)[nH]c2cc1CC
3. CC(C)(C)OC(=O)c1cc(-c2cccc(F)c2)c(=O)n2c1-c1sccc1CC2
4. O=C(O)/C=C/c1ccc(OCCOC2CC2)cc1Oc1ncc(C(F)(F)F)cc1Cl
5. O=Cc1c[nH]c2c(F)cccc12
6. CCCCCCCCCCCCCCc1ccc(C(C)=O)c(O)c1
7. CC(C)c1c(CO)c(-c2ccc(F)cc2)nc2ccccc12

Result:
["243 °C", "> 360 °C", "135 to 137 °C", "147 to 150 °C", "203 to 205 °C", "45 to 46 °C", "208 to 210 °C"]

Give melting point for each of the items listed below.
1. CC1SC(=S)N(C)N=C1c1ncc(Cl)cc1F (centres undefined)
2. Nc1c2c(nc3cccc(F)c13)C1CCC2C1 (centres undefined)
3. c1ccc(SCC2=NCCN2)cc1
4. NCC1Cc2cc(-c3ccccc3)cc(-c3cc(Cl)ccc3Cl)c2O1 (centres undefined)
5. Cc1cc(Cl)ccc1-c1nn(C(C)(C)C(=O)N(C)C)cc1C
6. CN1CCCC1=NCCSc1c[nH]c2ccccc12

Result:
["107 to 112 °C", "173 °C", "84 to 85.6 °C", "159 to 162 °C", "99 to 100 °C", "144 to 146 °C"]
